Tested on: Brassica napus L.
PROCEDURE_TEXT: Pre-emergence herbicidal inhibition assay, Petri dish test, BN
Type: in vivo
ASSAY_CONTEXT: Brassica napus, 168 h, root, 7 days, read-out: EC50 BN Root
Definition: the class of an entry is the range in low-valued: < 30 µg/mL; mid-valued: ≥ 30 µg/mL and < 50 µg/mL; high-valued: ≥ 50 µg/mL that contains its EC50.

stdin: # bin lookup: classify CC(C)c1onc(O)c1CC(P(=O)(O)O)P(=O)(O)O [Compound 13d] by its EC50
stdout: low-valued

stdin: # bin lookup: classify CCc1n[nH]c(CC)c1CC(P(=O)(O)O)P(=O)(O)O [Compound 12h] by its EC50
stdout: mid-valued

stdin: # bin lookup: classify Cc1n[nH]c(C(F)(F)F)c1CC(P(=O)(O)O)P(=O)(O)O [Compound 12i] by its EC50
stdout: mid-valued

stdin: # bin lookup: classify CC(C)c1n[nH]c(O)c1CCP(=O)(O)O by its EC50
stdout: high-valued

stdin: # bin lookup: classify CCc1noc(CC)c1CCP(=O)(O)O by its EC50
stdout: high-valued

stdin: # bin lookup: classify O=P(O)(O)C(Cc1c(O)noc1C(F)(F)F)P(=O)(O)O [Compound 13e] by its EC50
stdout: low-valued

stdin: # bin lookup: classify CCCc1onc(O)c1CCP(=O)(O)O by its EC50
stdout: high-valued

stdin: # bin lookup: classify CCc1n[nH]c(O)c1CC(P(=O)(O)O)P(=O)(O)O [Compound 12b] by its EC50
stdout: high-valued

stdin: # bin lookup: classify O=P(O)(O)C(Cc1c(C(F)(F)F)n[nH]c1O)P(=O)(O)O [Compound 12e] by its EC50
stdout: high-valued

stdin: # bin lookup: classify CCCc1onc(O)c1CC(P(=O)(O)O)P(=O)(O)O [Compound 13c] by its EC50
stdout: low-valued

stdin: # bin lookup: classify O=CN(O)CCCP(=O)(O)O [FOS, Fosmidomycin, reference compound] by its EC50
stdout: mid-valued

stdin: # bin lookup: classify CC1(C)CON(CCCC(P(=O)(O)O)P(=O)(O)O)C1=O by its EC50
stdout: mid-valued

stdin: # bin lookup: classify CC(C)c1onc(O)c1CCP(=O)(O)O by its EC50
stdout: high-valued

stdin: # bin lookup: classify CC(C)c1n[nH]c(O)c1CC(P(=O)(O)O)P(=O)(O)O [Compound 12d] by its EC50
stdout: low-valued

stdin: # bin lookup: classify Cc1onc(O)c1CC(P(=O)(O)O)P(=O)(O)O [Compound 13a] by its EC50
stdout: low-valued

stdin: # bin lookup: classify Cc1noc(C)c1CC(P(=O)(O)O)P(=O)(O)O [Compound 13g] by its EC50
stdout: high-valued

stdin: # bin lookup: classify CC1(C)CON(CCCP(=O)(O)O)C1=O by its EC50
stdout: high-valued

stdin: # bin lookup: classify O=P(O)(O)C(Cc1c(C(F)F)n[nH]c1O)P(=O)(O)O [Compound 12f] by its EC50
stdout: low-valued

stdin: # bin lookup: classify CCc1onc(O)c1CC(P(=O)(O)O)P(=O)(O)O [Compound 13b] by its EC50
stdout: mid-valued

stdin: # bin lookup: classify Cc1onc(C(F)(F)F)c1CC(P(=O)(O)O)P(=O)(O)O [Compound 13i] by its EC50
stdout: mid-valued

----------
Provide the recorded EC50 for the entries that follow.
Tested on: Brassica napus L.
PROCEDURE_TEXT: Pre-emergence herbicidal inhibition assay, Petri dish test, BN
Format: in vivo
ASSAY_CONTEXT: Brassica napus, 168 h, stalk, 7 days, read-out: EC50 BN Stalk
Report the value in µg/mL with no unit label.

stdin: Which value of EC50 has been reported for CCc1noc(CC)c1CC(P(=O)(O)O)P(=O)(O)O [Compound 13h] in the records?
stdout: 50.8

stdin: Which value of EC50 has been reported for O=CN(O)CCCP(=O)(O)O [FOS, Fosmidomycin, reference compound] in the records?
stdout: 32.9

stdin: Which value of EC50 has been reported for CCc1n[nH]c(CC)c1CC(P(=O)(O)O)P(=O)(O)O [Compound 12h] in the records?
stdout: 22.3

stdin: Which value of EC50 has been reported for CCCc1n[nH]c(O)c1CCP(=O)(O)O [Compound 5c] in the records?
stdout: 48.2

stdin: Which value of EC50 has been reported for Cc1noc(C)c1CC(P(=O)(O)O)P(=O)(O)O [Compound 13g] in the records?
stdout: 41.5

stdin: Which value of EC50 has been reported for CCc1n[nH]c(O)c1CC(P(=O)(O)O)P(=O)(O)O [Compound 12b] in the records?
stdout: 24.5

stdin: Which value of EC50 has been reported for CC(C)c1n[nH]c(O)c1CC(P(=O)(O)O)P(=O)(O)O [Compound 12d] in the records?
stdout: 41.5

stdin: Which value of EC50 has been reported for CCCc1onc(O)c1CCP(=O)(O)O [Compound 6c] in the records?
stdout: 33.7

stdin: Which value of EC50 has been reported for Cc1onc(O)c1CC(P(=O)(O)O)P(=O)(O)O [Compound 13a] in the records?
stdout: 8.5

stdin: Which value of EC50 has been reported for CCc1onc(O)c1CC(P(=O)(O)O)P(=O)(O)O [Compound 13b] in the records?
stdout: 20.2
